- assay.system: T1, human DLL4, full length, on cells (human, UniProt Q9NR61 27-685)
- T1 construct: also called huDLL4 cells; human DLL4-293G
- T1 sequence (Q9NR61 27-685 limits assumed): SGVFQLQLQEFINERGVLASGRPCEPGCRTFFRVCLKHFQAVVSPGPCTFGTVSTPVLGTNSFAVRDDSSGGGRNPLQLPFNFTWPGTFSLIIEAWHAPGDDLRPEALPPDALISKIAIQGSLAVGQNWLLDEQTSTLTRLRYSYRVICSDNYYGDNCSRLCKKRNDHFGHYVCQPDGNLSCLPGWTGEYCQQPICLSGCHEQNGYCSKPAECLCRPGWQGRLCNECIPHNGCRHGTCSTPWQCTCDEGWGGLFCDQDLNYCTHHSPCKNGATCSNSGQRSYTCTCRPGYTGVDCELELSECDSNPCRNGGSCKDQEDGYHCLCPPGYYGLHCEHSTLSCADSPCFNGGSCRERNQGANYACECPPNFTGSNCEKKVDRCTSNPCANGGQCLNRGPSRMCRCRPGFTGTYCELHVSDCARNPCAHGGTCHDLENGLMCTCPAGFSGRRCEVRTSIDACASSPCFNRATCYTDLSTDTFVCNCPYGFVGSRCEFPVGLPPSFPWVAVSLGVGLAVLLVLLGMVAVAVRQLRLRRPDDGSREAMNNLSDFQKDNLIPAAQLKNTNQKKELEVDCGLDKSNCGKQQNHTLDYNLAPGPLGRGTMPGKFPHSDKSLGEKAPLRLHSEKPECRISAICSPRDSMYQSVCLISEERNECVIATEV
- measurement.protocol: FACS, DLL4 cells

{"columns": ["binder", "EC50 (nM)"],
 "data": [
  ["32C7 chimeric antibody (antibody, human IgG1, V domains shown, also called Chimera of 32C7) VH: EVQLVESGGGLVQPGRSLKLSCLASGFPFSSVWMTWIRQAPGKGLEWIATITNSGASTYYSASVKGRFTISRDNVKSTLYLQMTSLGSEDTATYYCTRVGTSFDYWGQGVMVTVSS VL: DIQMTQSPASLSASLGETVTIECRASDDIYNGLAWFQQKPGKSPQLLIYDANTLHTGVPSRFSGSGSGTQFSLKINSLQSEDVASYFCQQFYDYPPYTFGAGTKLELKR", 3.71],
  ["14G1 chimeric antibody (antibody, human IgG1, V domains shown, also called Chimera of 14G1) VH: EVQLQQSGAELAKPGSSVKISCKASGYTFTNYDISWIKQTNGQGLEYLGYINTGSGGIYSNEKFKGKATLTVDKSSNTAFMQLSSLTPEDTAVYYCVREGNNFDHWGQGVKVTVSS VL: DTVMTQSPASMSTSVGERVTVNCKASQSVGTIVAWFQQKPGQSPKRLIYLATYRHTGVPDRFIGSGFGRDFTLTISNVEAEDLAVYYCLQYGSRPFTFGAGTKLEIKR", 0.994]
]}
